assay procedure: Test Example 1: drug solubility, simple mixture versus solid dispersion
Type: physicochemical
condition set: simulated gastric fluid, thermodynamic from solid, pH 1.2 buffer, 20 ml, amount corresponding to 400 mg of Olaparib, 37°C, 100 rpm
property name: solubility at 1 h (µg/mL)
Write down the numeric answer in µg/mL and omit the unit.

Inquiry: Fill in: solubility at 1 h of O=C(c1cc(Cc2n[nH]c(=O)c3ccccc23)ccc1F)N1CCN(C(=O)C2CC2)CC1 [Olaparib] is ___
Reply text: 100

Recorded values, source patent EP4079295A1.
